Exercise: state measured Ki for each of the compounds provided.

Short answer on 5-HT5A (Homo sapiens) for `COc1ccccc1Cc1cc2cc(Cl)ccc2nc1N` , Ki: < 300 nM

Short answer on 5-HT5A (Homo sapiens) for COc1ccc(-c2ccc3c(c2)N=C(N)N(Cc2c(OC)cccc2OC)C3)cc1 [Example 83, acetate] , Ki: < 10000 nM

Short answer on 5-HT5A (Homo sapiens) for COc1ccccc1CN1Cc2ccccc2N=C1NCC(C)C [Example 77, acetate] , Ki: < 10000 nM

Short answer on 5-HT5A (Homo sapiens) for `COc1cccc(F)c1Cc1cc2cnccc2nc1N` , Ki: < 300 nM

Short answer on 5-HT5A (Homo sapiens) for COc1cccc(OC)c1CN1Cc2ccccc2N=C1N [Example 63, acetate] , Ki: < 300 nM
